Target: Rat M4 (Rattus norvegicus)
Test: mAChR M4 cell-based functional assay (calcium flux, antagonist mode vs EC80 acetylcholine), rat M4/Gqi5/CHO-K1 cells
Conditions: decrease of response elicited by EC80 acetylcholine; rat M4/Gqi5 CHO-K1 cells
Catalogue of IC50 readings, one per entry.
quantity: IC50

smiles structure	readout value
O=S(=O)(c1ccccc1)c1ccc(N[C@H]2C[C@@H]3CN(Cc4ccccn4)C[C@@H]3C2)nn1	> 10 µM
O=C(Nc1cc(F)ccc1Cl)c1ccc(N[C@H]2C[C@@H]3CN(CC4CCOCC4)C[C@@H]3C2)nn1	> 10 µM
O=S1(=O)CCC(N2C[C@H]3C[C@H](Nc4ccc(-c5cc(F)ccc5Cl)nn4)C[C@H]3C2)CC1	> 10 µM

---

Molecular target: Rat M4 (Rattus norvegicus, UniProt P08485)
Construct: expressed in transfected cells; host or cells: CHO-K1 (ATCC), stably co-expressing chimeric G protein Gqi5
Assay: mAChR M4 cell-based functional assay (calcium flux, antagonist mode vs EC80 acetylcholine), rat M4/Gqi5/CHO-K1 cells
Conditions: CHO-K1; % ACh maximum at 30 μM; rat M4; read-out: Rat M4 Emin (%)
quantity: remaining activity at 30 µM (%)

molecule	readout value
O=S(=O)(c1ccc(N[C@H]2C[C@@H]3CN(CC4(O)CCOCC4)C[C@@H]3C2)nn1)C1CCCCC1 [compound 46]	27
O=C(c1ccc(N[C@H]2C[C@@H]3CN(CC4CCOCC4)C[C@@H]3C2)nn1)N1CCOCC1 [compound 6]	13
Cn1cc2cc(-c3ccc(N[C@H]4C[C@@H]5CN(C6CCOC(C)(C)C6)C[C@@H]5C4)nn3)ccc2n1 (some centres unmarked) [compound 63]	5
Cc1cccnc1CN1C[C@H]2C[C@H](Nc3ccc(S(=O)(=O)c4ccccc4)nn3)C[C@H]2C1 [compound 40]	15
CC1(C)CC(N2C[C@H]3C[C@H](Nc4ccc(-c5cc(F)ccc5Cl)nn4)C[C@H]3C2)CC(C)(C)O1 [compound 18]	4
[O-][S+](c1ccccc1)c1ccc(N[C@H]2C[C@@H]3CN(Cc4ccc5c(c4)OCO5)C[C@@H]3C2)nn1 (some centres unmarked) [compound 30]	4
Fc1ccc(Cl)c(-c2ccc(N[C@H]3C[C@@H]4CN(C5(C6CCOCC6)CC5)C[C@@H]4C3)nn2)c1 [compound 64]	32
Fc1ccc(Cl)c(-c2ccc(N[C@H]3C[C@@H]4CN(C5CC6(COC6)C5)C[C@@H]4C3)nn2)c1 [compound 69]	17

---

Molecular target: Rat M4 (Rattus norvegicus)
Sequence (P08485 1-478): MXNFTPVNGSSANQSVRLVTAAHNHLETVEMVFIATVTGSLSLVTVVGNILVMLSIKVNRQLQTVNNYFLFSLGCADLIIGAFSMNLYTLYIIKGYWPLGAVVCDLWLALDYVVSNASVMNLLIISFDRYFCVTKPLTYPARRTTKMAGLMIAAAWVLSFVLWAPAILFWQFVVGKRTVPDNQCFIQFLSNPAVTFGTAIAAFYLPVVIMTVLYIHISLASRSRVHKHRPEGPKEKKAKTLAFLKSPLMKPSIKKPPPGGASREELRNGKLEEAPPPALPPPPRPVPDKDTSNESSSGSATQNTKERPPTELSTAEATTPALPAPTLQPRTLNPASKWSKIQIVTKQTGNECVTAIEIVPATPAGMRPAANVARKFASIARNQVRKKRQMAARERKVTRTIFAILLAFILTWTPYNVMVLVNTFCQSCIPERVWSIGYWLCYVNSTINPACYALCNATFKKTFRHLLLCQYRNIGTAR
Experiment: mAChR M4 cell-based functional assay (calcium flux, antagonist mode vs EC80 acetylcholine), rat M4/Gqi5/CHO-K1 cells
Conditions: decrease of response elicited by EC80 acetylcholine; rat M4/Gqi5 CHO-K1 cells

compound	IC50
CC1(C)CC(N2C[C@H]3C[C@H](Nc4ccc(Cl)nn4)C[C@H]3C2)CCO1 (some centres unmarked) [compound 51]	> 10 µM
O=C(Nc1ccccc1)c1ccc(N[C@H]2C[C@@H]3CN(CC4CCOCC4)C[C@@H]3C2)nn1 [compound 7]	> 10 µM
Fc1ccc(Cl)c(-c2ccc(N[C@H]3C[C@@H]4CN(C5(C6CCOCC6)CC5)C[C@@H]4C3)nn2)c1 [compound 64]	> 10 µM
O=S(=O)(c1ccc(N[C@H]2C[C@@H]3CN(CC4(O)CCOCC4)C[C@@H]3C2)nn1)C1CCCCC1 [compound 46]	> 10 µM
Fc1ccc(Cl)c(-c2ccc(N[C@H]3C[C@@H]4CN(C5COC5)C[C@@H]4C3)nn2)c1 [compound 14]	> 10 µM

---

Entries and their pIC50
Target: Rat M4 (Rattus norvegicus, UniProt P08485)
Test: mAChR M4 cell-based functional assay (calcium flux, antagonist mode vs EC80 acetylcholine), rat M4/Gqi5/CHO-K1 cells
Conditions: decrease of response elicited by EC80 acetylcholine; rat M4/Gqi5 CHO-K1 cells
pIC50: −log10 of the molar value.

compound	pIC50
CC1(C)CC(N2C[C@H]3C[C@H](Nc4ccc(S(=O)(=O)C5CCCCC5)nn4)C[C@H]3C2)CCO1 (stereo partly drawn) [compound 36]	6.34
Fc1ccc(Cl)c(-c2ccc(N[C@H]3C[C@@H]4CN(C5CCCOC5)C[C@@H]4C3)nn2)c1 (stereo partly drawn)	5.85
Cc1cc2c(cc1CN1C[C@H]3C[C@H](Nc4ccc(S(=O)(=O)c5ccccc5)nn4)C[C@H]3C1)OCO2	5.51
CC(=O)Nc1ccc(-c2ccc(N[C@H]3C[C@@H]4CN(C5CCOC(C)(C)C5)C[C@@H]4C3)nn2)cn1 (stereo partly drawn)	6.50
O=S(=O)(c1ccc(N[C@H]2C[C@@H]3CN(Cc4ccc5c(c4)OCO5)C[C@@H]3C2)nn1)C1CCCCC1	6.80
O=C(c1ccc(N[C@H]2C[C@@H]3CN(CC4CCOCC4)C[C@@H]3C2)nn1)N1CCOCC1	5.13

---

# IC50 annotations
Target: Human M4 (Homo sapiens)
Sequence (P08173 1-479): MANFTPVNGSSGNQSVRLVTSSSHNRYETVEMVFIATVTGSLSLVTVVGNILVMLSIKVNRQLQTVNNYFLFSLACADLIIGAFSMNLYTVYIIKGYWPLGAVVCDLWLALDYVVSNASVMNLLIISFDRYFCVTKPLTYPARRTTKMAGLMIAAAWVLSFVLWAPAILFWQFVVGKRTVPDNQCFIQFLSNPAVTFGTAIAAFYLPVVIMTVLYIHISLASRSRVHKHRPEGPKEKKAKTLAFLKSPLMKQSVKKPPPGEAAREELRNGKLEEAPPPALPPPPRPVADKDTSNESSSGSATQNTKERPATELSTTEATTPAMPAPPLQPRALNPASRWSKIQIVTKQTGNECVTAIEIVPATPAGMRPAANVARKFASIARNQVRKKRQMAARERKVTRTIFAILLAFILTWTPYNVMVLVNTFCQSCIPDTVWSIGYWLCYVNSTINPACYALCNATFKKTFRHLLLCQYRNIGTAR
Experiment: mAChR M4 cell-based functional assay (calcium flux, antagonist mode vs EC80 acetylcholine), human M4/Gqi5/CHO-K1 cells
Conditions: decrease of response elicited by EC80 acetylcholine; human M4/Gqi5 CHO-K1 cells
quantity: IC50 (nM)

molecule	readout value
Fc1ccc(Cl)c(-c2ccc(N[C@H]3C[C@@H]4CN(C5CCC(F)(F)CC5)C[C@@H]4C3)nn2)c1	2.42
CC(=O)Nc1ccc(-c2ccc(N[C@H]3C[C@@H]4CN(C5CCOC(C)(C)C5)C[C@@H]4C3)nn2)cn1 (stereo partly drawn)	76.1
CC1(C)CC(N2C[C@H]3C[C@H](Nc4ccc(Cl)nn4)C[C@H]3C2)CCO1 (stereo partly drawn)	8560

---

Biological target: Human M4 (Homo sapiens, UniProt P08173)
Sequence (P08173 1-479): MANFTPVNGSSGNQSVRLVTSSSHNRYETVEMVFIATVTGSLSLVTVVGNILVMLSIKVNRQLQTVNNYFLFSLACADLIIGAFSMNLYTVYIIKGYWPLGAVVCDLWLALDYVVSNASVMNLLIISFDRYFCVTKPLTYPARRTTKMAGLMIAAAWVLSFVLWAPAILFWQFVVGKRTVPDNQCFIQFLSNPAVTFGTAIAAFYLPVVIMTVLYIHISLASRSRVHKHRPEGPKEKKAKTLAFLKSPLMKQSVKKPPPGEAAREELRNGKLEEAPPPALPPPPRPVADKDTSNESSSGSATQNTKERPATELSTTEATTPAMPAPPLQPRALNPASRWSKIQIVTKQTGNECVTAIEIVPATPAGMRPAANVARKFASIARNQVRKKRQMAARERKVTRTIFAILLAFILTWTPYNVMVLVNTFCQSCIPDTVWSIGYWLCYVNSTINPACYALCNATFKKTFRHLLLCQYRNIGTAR
Experiment: mAChR M4 cell-based functional assay (calcium flux, antagonist mode vs EC80 acetylcholine), human M4/Gqi5/CHO-K1 cells
Conditions: decrease of response elicited by EC80 acetylcholine; human M4/Gqi5 CHO-K1 cells

smiles structure	IC50, nM
CCCN1C(=O)C(C)(C)c2cc(N[C@H]3C[C@@H]4CN(CCC(C)(C)C)C[C@@H]4C3)nnc21	10.5
Fc1ccc(Cl)c(-c2ccc(N[C@H]3C[C@@H]4CN(C5CCC6(CCOCC6)CC5)C[C@@H]4C3)nn2)c1	2.3
O=S(=O)(c1ccccc1)c1ccc(N[C@H]2C[C@@H]3CN(CC4CCOCC4)C[C@@H]3C2)nn1	65.6
